target: ORC (ScORC, ORC hexamer) (Saccharomyces cerevisiae, UniProt P54784+P54791, P54784:K362A); construct: with Origin recognition complex subunit 2; Origin recognition complex subunit 3; Origin recognition complex subunit 5; Origin recognition complex subunit 6; experiment: nitrocellulose filter binding, Scatchard plot
Sequence (P54784 whole entry K362A, one chain of several): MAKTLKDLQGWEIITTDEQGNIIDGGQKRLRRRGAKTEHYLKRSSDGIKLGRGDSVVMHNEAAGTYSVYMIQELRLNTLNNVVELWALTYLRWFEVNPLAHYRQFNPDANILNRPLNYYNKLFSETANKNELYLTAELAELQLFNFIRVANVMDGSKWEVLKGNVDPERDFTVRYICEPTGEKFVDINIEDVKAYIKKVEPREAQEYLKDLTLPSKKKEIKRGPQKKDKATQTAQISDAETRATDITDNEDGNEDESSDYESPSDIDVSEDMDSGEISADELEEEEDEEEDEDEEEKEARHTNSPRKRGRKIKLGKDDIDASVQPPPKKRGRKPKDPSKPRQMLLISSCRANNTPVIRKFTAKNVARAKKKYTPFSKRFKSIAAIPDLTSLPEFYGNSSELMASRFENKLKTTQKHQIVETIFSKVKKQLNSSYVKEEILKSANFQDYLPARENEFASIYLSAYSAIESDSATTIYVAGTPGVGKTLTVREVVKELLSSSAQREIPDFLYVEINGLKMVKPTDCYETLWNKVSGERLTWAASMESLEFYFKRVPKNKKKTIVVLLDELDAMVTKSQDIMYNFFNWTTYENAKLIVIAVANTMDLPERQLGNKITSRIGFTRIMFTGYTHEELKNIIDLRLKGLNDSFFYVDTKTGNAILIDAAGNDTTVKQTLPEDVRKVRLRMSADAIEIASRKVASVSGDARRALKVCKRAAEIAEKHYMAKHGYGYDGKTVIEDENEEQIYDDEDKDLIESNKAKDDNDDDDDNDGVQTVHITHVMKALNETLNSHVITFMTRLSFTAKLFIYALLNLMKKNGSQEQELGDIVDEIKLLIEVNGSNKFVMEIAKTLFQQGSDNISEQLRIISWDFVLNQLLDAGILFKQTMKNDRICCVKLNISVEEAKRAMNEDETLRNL
pKd: −log10 of the molar value.
ENDPOINT NAME: pKd

Nc1ncnc2c1ncn2[C@@H]1O[C@H](COP(=O)(O)OP(=O)(O)OP(=O)(O)O)[C@@H](O)[C@H]1O [ATP] ... 7.46

###

biological target: ORC (ScORC, ORC hexamer) (Saccharomyces cerevisiae, UniProt P54784+P54791); construct: with Origin recognition complex subunit 2; Origin recognition complex subunit 3; Origin recognition complex subunit 5; Origin recognition complex subunit 6; assay: nitrocellulose filter binding, Scatchard plot
Sequence (P54784 whole entry): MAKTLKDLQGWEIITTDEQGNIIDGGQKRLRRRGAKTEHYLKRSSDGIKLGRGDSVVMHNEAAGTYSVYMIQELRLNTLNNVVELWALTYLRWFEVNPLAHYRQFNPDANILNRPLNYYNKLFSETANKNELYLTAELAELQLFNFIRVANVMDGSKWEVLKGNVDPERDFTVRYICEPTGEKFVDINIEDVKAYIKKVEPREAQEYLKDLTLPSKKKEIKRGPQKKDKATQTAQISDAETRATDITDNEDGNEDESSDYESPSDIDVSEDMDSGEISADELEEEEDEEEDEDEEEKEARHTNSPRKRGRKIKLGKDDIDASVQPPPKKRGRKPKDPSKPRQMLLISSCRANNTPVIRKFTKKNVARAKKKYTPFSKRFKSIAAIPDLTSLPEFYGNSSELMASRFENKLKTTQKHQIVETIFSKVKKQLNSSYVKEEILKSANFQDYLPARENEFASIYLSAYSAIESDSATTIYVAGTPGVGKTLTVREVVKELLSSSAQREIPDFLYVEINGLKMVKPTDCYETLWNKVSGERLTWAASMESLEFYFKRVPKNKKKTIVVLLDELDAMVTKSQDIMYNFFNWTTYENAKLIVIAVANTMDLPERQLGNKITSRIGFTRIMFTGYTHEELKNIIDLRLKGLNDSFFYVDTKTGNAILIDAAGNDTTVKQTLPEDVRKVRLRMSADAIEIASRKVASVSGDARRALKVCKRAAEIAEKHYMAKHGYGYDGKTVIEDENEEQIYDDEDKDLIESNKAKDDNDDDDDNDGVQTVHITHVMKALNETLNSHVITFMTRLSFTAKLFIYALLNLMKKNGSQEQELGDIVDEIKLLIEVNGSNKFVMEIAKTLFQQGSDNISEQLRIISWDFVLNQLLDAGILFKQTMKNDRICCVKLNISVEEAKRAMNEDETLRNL
Sequence (P54791 whole entry): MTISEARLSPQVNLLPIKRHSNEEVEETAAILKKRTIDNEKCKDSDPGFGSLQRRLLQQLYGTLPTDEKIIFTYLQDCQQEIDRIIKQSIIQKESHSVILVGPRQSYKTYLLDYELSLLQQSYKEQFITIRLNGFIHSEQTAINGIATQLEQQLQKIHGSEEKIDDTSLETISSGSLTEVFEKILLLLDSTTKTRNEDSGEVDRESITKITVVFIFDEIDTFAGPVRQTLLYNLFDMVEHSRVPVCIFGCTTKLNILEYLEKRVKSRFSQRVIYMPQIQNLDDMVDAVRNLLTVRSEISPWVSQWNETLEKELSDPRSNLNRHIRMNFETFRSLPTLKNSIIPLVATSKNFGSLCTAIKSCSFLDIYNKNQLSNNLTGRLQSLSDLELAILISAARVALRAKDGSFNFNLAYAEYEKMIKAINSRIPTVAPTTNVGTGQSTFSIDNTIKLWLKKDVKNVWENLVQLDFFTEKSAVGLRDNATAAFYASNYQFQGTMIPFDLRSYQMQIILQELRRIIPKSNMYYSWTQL
Sequence (P32833 whole entry partner): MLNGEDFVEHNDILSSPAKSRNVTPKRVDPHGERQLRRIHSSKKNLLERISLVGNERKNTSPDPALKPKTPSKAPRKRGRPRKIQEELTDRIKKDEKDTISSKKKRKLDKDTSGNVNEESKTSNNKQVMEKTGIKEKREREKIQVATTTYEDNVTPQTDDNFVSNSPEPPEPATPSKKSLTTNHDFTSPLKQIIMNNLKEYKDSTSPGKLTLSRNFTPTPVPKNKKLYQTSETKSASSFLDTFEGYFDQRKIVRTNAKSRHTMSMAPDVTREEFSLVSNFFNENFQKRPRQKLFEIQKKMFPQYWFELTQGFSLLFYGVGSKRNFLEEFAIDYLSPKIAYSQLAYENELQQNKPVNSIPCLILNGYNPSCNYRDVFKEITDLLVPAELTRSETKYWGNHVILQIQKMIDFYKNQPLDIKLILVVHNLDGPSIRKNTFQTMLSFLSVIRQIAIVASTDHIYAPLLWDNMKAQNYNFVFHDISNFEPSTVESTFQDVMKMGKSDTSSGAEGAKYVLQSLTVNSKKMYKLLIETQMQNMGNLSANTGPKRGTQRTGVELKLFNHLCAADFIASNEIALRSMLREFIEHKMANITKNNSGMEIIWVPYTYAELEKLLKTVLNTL
Sequence (P54790 2-616 partner): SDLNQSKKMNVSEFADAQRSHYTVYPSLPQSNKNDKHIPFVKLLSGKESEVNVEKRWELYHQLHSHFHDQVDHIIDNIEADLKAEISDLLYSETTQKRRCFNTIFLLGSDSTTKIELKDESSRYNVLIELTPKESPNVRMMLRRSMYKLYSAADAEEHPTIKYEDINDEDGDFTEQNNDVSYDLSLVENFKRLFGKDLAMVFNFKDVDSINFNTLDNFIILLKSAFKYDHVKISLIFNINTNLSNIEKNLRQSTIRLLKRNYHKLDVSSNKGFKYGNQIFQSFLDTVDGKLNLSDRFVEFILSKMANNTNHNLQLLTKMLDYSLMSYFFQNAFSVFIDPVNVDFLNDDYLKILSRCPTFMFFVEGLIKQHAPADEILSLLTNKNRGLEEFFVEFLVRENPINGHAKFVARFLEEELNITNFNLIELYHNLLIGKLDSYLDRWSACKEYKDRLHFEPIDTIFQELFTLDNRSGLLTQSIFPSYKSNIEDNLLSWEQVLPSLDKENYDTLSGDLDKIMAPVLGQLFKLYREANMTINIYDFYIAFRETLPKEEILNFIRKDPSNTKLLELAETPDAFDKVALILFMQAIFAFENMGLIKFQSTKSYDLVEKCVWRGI
Sequence (P50874 whole entry partner): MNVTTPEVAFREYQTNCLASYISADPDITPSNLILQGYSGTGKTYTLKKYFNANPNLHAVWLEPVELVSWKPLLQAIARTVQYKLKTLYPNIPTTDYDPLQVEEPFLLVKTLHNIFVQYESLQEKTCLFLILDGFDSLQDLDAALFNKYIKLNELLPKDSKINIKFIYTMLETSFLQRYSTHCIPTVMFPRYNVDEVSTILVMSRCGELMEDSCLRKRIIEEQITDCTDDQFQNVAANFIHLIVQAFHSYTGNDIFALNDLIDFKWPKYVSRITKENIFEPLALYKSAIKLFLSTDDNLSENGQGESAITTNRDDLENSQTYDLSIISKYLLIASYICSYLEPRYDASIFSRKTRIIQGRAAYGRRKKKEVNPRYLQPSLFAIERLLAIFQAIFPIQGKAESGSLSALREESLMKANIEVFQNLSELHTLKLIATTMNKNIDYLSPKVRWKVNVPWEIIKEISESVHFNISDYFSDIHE
Sequence (P38826 whole entry partner): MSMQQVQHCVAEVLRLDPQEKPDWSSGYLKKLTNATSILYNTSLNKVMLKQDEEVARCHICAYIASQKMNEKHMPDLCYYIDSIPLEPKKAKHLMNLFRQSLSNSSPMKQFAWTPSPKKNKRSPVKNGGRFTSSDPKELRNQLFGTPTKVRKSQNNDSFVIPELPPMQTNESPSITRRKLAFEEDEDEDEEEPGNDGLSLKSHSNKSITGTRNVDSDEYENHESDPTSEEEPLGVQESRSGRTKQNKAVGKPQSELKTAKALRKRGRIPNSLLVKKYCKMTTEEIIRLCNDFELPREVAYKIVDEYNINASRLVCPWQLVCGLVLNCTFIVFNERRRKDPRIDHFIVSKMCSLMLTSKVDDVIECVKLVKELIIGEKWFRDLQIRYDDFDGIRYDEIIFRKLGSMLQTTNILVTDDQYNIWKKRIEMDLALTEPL
ENDPOINT NAME: Kd (nM)

Nc1ncnc2c1ncn2[C@@H]1O[C@H](COP(=O)(O)OP(=O)(O)OP(=O)(O)O)[C@@H](O)[C@H]1O ... 31

###

molecular target: ORC (ScORC, ORC hexamer) (Saccharomyces cerevisiae, UniProt P54784+P54791, P54784:R367A); construct: with Origin recognition complex subunit 2; Origin recognition complex subunit 3; Origin recognition complex subunit 5; Origin recognition complex subunit 6; experiment: nitrocellulose filter binding, Scatchard plot
Sequence (P54784 whole entry R367A, one chain of several): as the sequence (P54784 whole entry K362A, one chain of several) above, with A362K, R367A counted along it
pKd: −log10 of the molar value.
ENDPOINT NAME: pKd

Nc1ncnc2c1ncn2[C@@H]1O[C@H](COP(=O)(O)OP(=O)(O)OP(=O)(O)O)[C@@H](O)[C@H]1O [ATP] ... 7.49
